molecular target: human glucagon receptor (human) (UniProt P47871); assay: cell-based or functional assay
Sequence (P47871 26-477): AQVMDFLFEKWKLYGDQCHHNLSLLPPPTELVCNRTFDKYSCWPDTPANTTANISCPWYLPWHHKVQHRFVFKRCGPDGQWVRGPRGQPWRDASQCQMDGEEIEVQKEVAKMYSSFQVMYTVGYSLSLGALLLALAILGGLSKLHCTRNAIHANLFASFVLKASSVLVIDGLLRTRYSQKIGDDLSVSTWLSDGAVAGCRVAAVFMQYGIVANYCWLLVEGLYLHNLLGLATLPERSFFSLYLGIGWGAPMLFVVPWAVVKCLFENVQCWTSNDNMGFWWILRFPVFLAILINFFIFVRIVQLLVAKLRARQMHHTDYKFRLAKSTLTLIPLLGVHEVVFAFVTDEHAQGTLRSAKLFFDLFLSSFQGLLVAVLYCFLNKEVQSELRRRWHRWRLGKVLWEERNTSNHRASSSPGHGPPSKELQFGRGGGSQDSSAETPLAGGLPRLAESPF
Non-standard residues stand in square brackets, D forms with d. No end group written: not given here. αMePhe(2-F) = C[C@](N)(Cc1ccccc1F)C(=O)O; Aib = CC(C)(N)C(=O)O
PARAMETER: cAMP Rel EC50, nM (1% HSA) (nM)

BINDER	PARAMETER	REPORTED MEASUREMENT
YXQGTFTSDFSXXLDKKAQXAFIEYLLEGGPSSGAPPPGGQ (synthetic construct; SITE 2: note = 2-Aminoisobutyric Acid; SITE 12: note = L-ornithine; SITE 13: note = alpha-methyl-leucine; SITE 17: note = Lysine is chemically modified through conjugation of the epsilon-amino group of the Lysine side chain with (2-[2-(2-Amino-ethoxy)-ethoxy]-acetyl)-(gamma-Glu)) [Example 159]	cAMP Rel EC50, nM (1% HSA)	475
YXQGTFTSDFSQXLDKKAQXAFIEYLLEXGESSGAPPPSGS (synthetic construct; SITE 2: note = 2-Aminoisobutyric Acid; SITE 13: note = alpha-methyl-leucine; SITE 17: note = Lysine is chemically modified through conjugation of the epsilon-amino group of the Lysine side chain with (2-[2-(2-Amino-ethoxy)-ethoxy]-acetyl)2-(gamma-Glu)-CO-(CH2 )16-CO2H; SITE 20:) [Example 787]	cAMP Rel EC50, nM (1% HSA)	2060
Y[Aib]QGT[αMePhe(2-F)]TSDYSKLLDKIAQKAFIEYLIEGGPSSGAPPPSGE-NH2 (not fully specified (residue 20)) [Example 356]	cAMP Rel EC50, nM (1% HSA)	2680
YXQGTFTSDFSXXLDKKAQXAFIEYLLEXGPSSGAPPPEGS (synthetic construct; SITE 2: note = 2-Aminoisobutyric Acid; SITE 12: note = L-ornithine; SITE 13: note = alpha-methyl-leucine; SITE 17: note = Lysine is chemically modified through conjugation of the epsilon-amino group of the Lysine side chain with (2-[2-(2-Amino-ethoxy)-ethoxy]-acetyl)2-(gamma-Glu)) [Example 194]	cAMP Rel EC50, nM (1% HSA)	813
YXQGTFTSDXSXXLDXKAQXAFIEYLIAGGPSSGAPPPSGSE (non-natural residues; Lys acylated C18 diacid; C-terminal amide; synthetic construct; SITE 2: note = 2-Aminoisobutyric Acid; SITE 10: note = 3-(4-Pyridyl)-L-alanine; SITE 12: note = L-ornithine; SITE 13: note = alpha-methyl-leucine; SITE 16: note = L-ornithine; SITE 17: note = Lysine is chemically modified through conjugation of the epsilon-amino group of the Lys) [Example 1011]	cAMP Rel EC50, nM (1% HSA)	459
YXQGTFTSDXSQXLDXKAQXQFIEXLIEGGPSSGEPPPSGSEE (non-natural residues, lipidated Lys, C-terminal amide; synthetic construct; SITE 2: note = 2-Aminoisobutyric Acid; SITE 10: note = 3-(4-Pyridyl)-L-alanine; SITE 13: note = alpha-methyl-leucine; SITE 16: note = L-ornithine; SITE 17: note = Lysine is chemically modified through conjugation of the epsilon-amino group of the Lysine side chain with (gamma-Gl)) [Example 1026]	cAMP Rel EC50, nM (1% HSA)	2080
